- target-or-system: cynomolgus monkey (cyno) TIGIT protein (cynomolgus monkey, UniProt A0A7N9I9V4 89-209)
- Sequence (A0A7N9I9V4 entry or part of it): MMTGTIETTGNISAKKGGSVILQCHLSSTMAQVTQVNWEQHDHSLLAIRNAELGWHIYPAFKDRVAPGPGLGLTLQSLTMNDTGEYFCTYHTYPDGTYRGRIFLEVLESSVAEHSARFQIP
- test-description: SPR, monovalent affinity
Recorded Kd for the following binders

binder	Kd
4.1A4.C96S.Q1E (antibody, V domains shown, FR/HVR pieces in order; also called 4.1A4.Q1E.C96S) VH: EVQLVQSGSELKKPGASVKVSCKASGYTLTNYPMNWVRQAPGRGLEWMGWINTNTGSPAYAQDFTERFVFSLDTSVTTAYLQISSLKAEDTAVYYCARTAITSVYHFDYWGQGTLVTVSS VL: DIQLTQSPSFLSASVGDRVTITCRASQGISSYLAWYQQKPGKAPRVLIYGATTLQSGVPSRFSGSESGTEFTLTISSLQPEDLATYYCQKLNSHPSSFGQGTKVEIK	12.6 nM
h10A5.L1H1 (antibody, V domains shown, Humanized; FR/HVR pieces in order; also called h1.10A5.L1H1) VH: EVTLKESGPALVKPTQTLTLTCTFSGFSLTTYGMGVSWIRQPPGKALEWLASIWWNGNTYYNPSLRSRLTVTKDTSKNQAVLTMTNMDPVDTATYYCAHTGGAVITWFAYWGQGTLVTVSS VL: EIVMTQSPATLSVSPGERATLSCKASQSVGKNIAWYQQKPGQSPRLLIYYASNRYTGVPARFSGSGSGTEFTLTISSLQSEDFAVYYCQHIYNSPYPFGQGTKVEIK	0.86 nM
